Below, each of the compounds is paired with its reported SSTR5 Inhib 0.5 uM % (inhibition of binding of SST-14 to SSTR5) value.
Target: Human SST5 somatostatin receptor (SSTR5) (Homo sapiens, UniProt P35346)
Construct: expressed in transfected cells; host or cells: HEK-293 EBNA
Sequence (P35346 whole entry): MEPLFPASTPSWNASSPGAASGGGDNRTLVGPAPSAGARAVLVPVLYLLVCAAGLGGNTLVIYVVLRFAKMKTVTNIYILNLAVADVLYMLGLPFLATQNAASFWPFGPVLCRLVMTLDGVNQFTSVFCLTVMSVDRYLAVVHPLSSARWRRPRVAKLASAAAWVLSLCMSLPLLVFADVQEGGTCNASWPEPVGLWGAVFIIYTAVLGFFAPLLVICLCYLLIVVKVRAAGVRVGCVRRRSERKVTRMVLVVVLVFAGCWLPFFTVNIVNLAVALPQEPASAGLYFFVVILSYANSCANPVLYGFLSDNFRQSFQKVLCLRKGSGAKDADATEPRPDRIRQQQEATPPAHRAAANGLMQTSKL
Test: Filter plate assay for SST5 receptor, displacement of [125I]SST-14
Assay type: binding
Conditions: 0.5 uM
Attribute Measured: SSTR5 Inhib 0.5 uM % (inhibition of binding of SST-14 to SSTR5) (%)

Compound	Target Entity	Unit Name	Experimental Result
COC[C@H]1OC(OCc2ccc3ccccc3c2)[C@H](NC(=O)CCNC(=N)N)[C@@H](OCc2ccc(-c3ccccc3)cc2)[C@@H]1O (some centres unmarked) [Compound 52]	Human SST5 somatostatin receptor (SSTR5) (Homo sapiens, UniProt P35346)	%	69
COC1C(O)C(COCc2ccc3ccccc3c2)OC(OCc2ccc3ccccc3c2)C1NC(=O)CCNC(=N)N (centres unmarked) [Compound 115]	Human SST5 somatostatin receptor (SSTR5) (Homo sapiens, UniProt P35346)	%	50
COC1C(O)C(COCc2ccc(Cl)cc2)OC(OCc2ccc3ccccc3c2)C1NC(=O)CCCNC(=N)N (centres unmarked) [Compound 134]	Human SST5 somatostatin receptor (SSTR5) (Homo sapiens, UniProt P35346)	%	55
COC[C@H]1OC(OCc2ccc3ccccc3c2)[C@H](NC(=O)CCCN)[C@@H](OCc2ccc(-c3ccccc3)cc2)[C@@H]1O (some centres unmarked) [Compound 25]	Human SST5 somatostatin receptor (SSTR5) (Homo sapiens, UniProt P35346)	%	77
COC[C@H]1OC(OCc2ccccc2)[C@H](NC(=O)CCNC(=N)N)[C@@H](OCc2ccc(-c3ccccc3)cc2)[C@@H]1O (some centres unmarked) [Compound 172]	Human SST5 somatostatin receptor (SSTR5) (Homo sapiens, UniProt P35346)	%	21
COC[C@H]1OC(OCCc2ccccc2)[C@H](NC(=O)CCCN)[C@@H](OCc2ccc(-c3ccccc3)cc2)[C@@H]1O (some centres unmarked) [Compound 65]	Human SST5 somatostatin receptor (SSTR5) (Homo sapiens, UniProt P35346)	%	61
CSC1O[C@H](COCc2ccccc2)[C@@H](O)[C@@H](OCc2ccc(-c3ccccc3)cc2)[C@H]1NC(=O)CNC(=N)N (some centres unmarked) [Compound 149]	Human SST5 somatostatin receptor (SSTR5) (Homo sapiens, UniProt P35346)	%	35
CSC1O[C@H](COCc2ccc(Cl)cc2)[C@@H](O)[C@@H](OCc2ccc3ccccc3c2)[C@H]1NC(=O)CNC(=N)N (some centres unmarked) [Compound 150]	Human SST5 somatostatin receptor (SSTR5) (Homo sapiens, UniProt P35346)	%	42
COC[C@H]1OC(OCc2ccc3ccccc3c2)[C@H](NC(=O)CNC(=N)N)[C@@H](OCc2ccc(-c3ccccc3)cc2)[C@@H]1O (some centres unmarked) [Compound 88]	Human SST5 somatostatin receptor (SSTR5) (Homo sapiens, UniProt P35346)	%	63
CSC1O[C@H](COCc2ccc(Cl)cc2)[C@@H](O)[C@@H](OCc2ccc3ccccc3c2)[C@H]1NC(=O)CCCN (some centres unmarked) [Compound 153]	Human SST5 somatostatin receptor (SSTR5) (Homo sapiens, UniProt P35346)	%	34
CSC1O[C@H](COCc2ccccc2)[C@@H](O)[C@@H](OCc2ccc3ccccc3c2)[C@H]1NC(=O)CCCNC(=N)N (some centres unmarked) [Compound 91]	Human SST5 somatostatin receptor (SSTR5) (Homo sapiens, UniProt P35346)	%	53
COC1C(O)C(COCc2ccc(Cl)cc2)OC(OCCc2ccccc2)C1NC(=O)CCCN (centres unmarked) [Compound 141]	Human SST5 somatostatin receptor (SSTR5) (Homo sapiens, UniProt P35346)	%	36
COC[C@H]1OC(OCc2ccccc2)[C@H](NC(=O)CCCN)[C@@H](OCc2cccc(O)c2)[C@@H]1O (some centres unmarked) [Compound 144]	Human SST5 somatostatin receptor (SSTR5) (Homo sapiens, UniProt P35346)	%	45
COC[C@H]1OC(OCc2ccc3ccccc3c2)[C@H](NC(=O)CCNC(=N)N)[C@H](OCc2ccccc2)[C@@H]1O (some centres unmarked) [Compound 85]	Human SST5 somatostatin receptor (SSTR5) (Homo sapiens, UniProt P35346)	%	54
